Can you tell me growth for the items I'm about to list?
- Test system: SK-OV-3 ovarian
- protocol_text: NCI-60 one-dose screen, 48 h (100 = growth as untreated, 0 = no growth, -100 = all killed)
- assay_setup: 10 µM unless noted
About 83,000 compounds went through this panel and 20% of them were active in at least one assay; those are over-represented in the sample as a whole. Activity calls are given as the source filed them. The calls were made as follows: active = growth percent below 10; inactive = the rest.

Input: Fill in the blank: the reported growth of COc1cc(-c2csc(NC(=O)c3ccc(N4CCOCC4)c(C(F)(F)F)c3)n2)cc(OC)c1OC is ____.
Output: 74.5% (inactive)

Input: Please do the same for O=C1c2c(c3c4ccccc4[nH]c3c3ccc4ccccc4c23)C(=O)N1CCN1CCNCC1 as well.
Output: 107% (inactive)

Input: // next record C1CN(SSN2CCOCC2)CCO1
Output: 101% [100 µM] (inactive)

Input: What do you have for COc1ccc2c(c1OC)CO[C@@H]2[C@H]1c2c(cc3c(c2OC)OCO3)CCN1S(=O)(=O)c1cn(C)cn1 ?
Output: 22.2% (inactive)

Input: Same question for CSc1nnc(-c2cc3c([nH]c4ccccc43)c(-c3cccc(O)c3)n2)n1-c1ccccc1 please.
Output: 47.4% (inactive)

====

- Tested on: OVCAR-4 ovarian
- protocol_text: NCI-60 one-dose screen, 48 h (100 = growth as untreated, 0 = no growth, -100 = all killed)
- assay_setup: 10 µM unless noted
This is part of a sample that, as a whole, favours compounds with a hit. Of some 83,000 tested, about 20% had one in any assay.
Quick rule: growth of at least 70% means y, below that means n.

Input: Quick check: does Nc1n[nH]c2cccc(C#Cc3cccc(NC(=O)c4cc(F)cc(C(F)(F)F)c4)c3)c12 have growth greater than or equal to 70%?
Output: y

Input: What about CCOc1ccccc1Cn1ccnc1CCc1c(Cl)c(O)cc(O)c1C(=O)OC ?
Output: y

Input: Also need O=C(OC(CO)C(=O)NC12CC3CC(CC(C3)C1)C2)c1ccc(Cl)cc1 (stereo not given) , thanks.
Output: y

Input: Try this molecule too: CS(=O)(=O)Nc1cncc(-c2ccc3ncnc(Nc4cncc(Cl)c4)c3c2)c1
Output: y

Input: Note, next up: N#Cc1c(-c2ccc(Cl)cc2)nc(NN2C(=O)c3ccccc3C2=O)nc1N1CCOCC1
Output: y

Input: // repeat for O=C1C(Cl)=C(Nc2ccc(S(=O)(=O)N3CCOCC3)cc2)C(=O)c2ccccc21 and report
Output: y

Input: What about CCN(CC)CCn1c2ccc(OC)cc2c2sc3cc(OC)ccc3c(=O)c21 ?
Output: n

Input: Next up: COc1c(B(O)O)cccc1-c1cc(C)c2c(ccc3[nH]ncc32)n1
Output: y

Input: Check O=C(/C=C/c1cccc(Cl)c1)c1cccc(OCCCOc2cccc(C(=O)/C=C/c3cccc(Cl)c3)c2)c1 too.
Output: y

Input: Next up: CCOC(=O)C#Cc1c(C(=O)OCC)nnn1Cc1ccc([N+](=O)[O-])cc1
Output: n

Input: # iterate: O=C(Nc1cccc(-c2ccc(N3CCOCC3)nn2)c1)Nc1cccc(C(F)(F)F)c1
Output: y

Input: Field entry: COc1ccc(-c2nn(-c3cccc(Cl)c3)cc2-c2cc(-c3ccc(Br)cc3)nc(N)n2)cc1
Output: y

Input: Also need NC(Cc1ccc(O)c([N+](=O)[O-])c1)C(=O)O (stereo not given) , thanks.
Output: y

Input: Same for COc1cc2oc(-c3cccc(NC(=O)c4ccccc4)c3)cc(=O)c2c(OC)c1OC
Output: y

Input: // query: Cc1c2cnccc2c(C)c2c1c1cc(C#N)ccc1n2C
Output: n

Input: Another molecule: Cc1cc(C)c2c(c1)N(C)c1ncnc(-n3cnc4cc(C)ccc43)c1CC2C (stereo not given)
Output: n

Input: Same again, this time with NC(=O)c1cccc(-n2ccc3cc(NC(=O)c4ccc(N5CCOCC5)c(C(F)(F)F)c4)ccc32)n1
Output: n

Input: Now give it for CC1=C2[C@@H](CC1)[C@]1(C)O[C@@](C(C)C)(C[C@H]1OC(=O)[C@H](C)O)[C@H]2OC(=O)/C=C/c1ccccc1 too.
Output: y
